Test system: human APOE RNA
Test name: Activity in APOE C57BL/6NTac-Apoeem7250 knock-in mice, single ICV bolus, 20 weeks (Example 13)
Type: in vivo
Run parameters: cortex; single ICV bolus 300 μg; 20 weeks post treatment; normalized to mouse Ppia
Strand notation (5' to 3'): a small letter for the sugar, then the base; units joined by * are phosphorothioate-linked, units joined directly phosphodiester-linked; [ ] holds rarer units or linkages, { } end groups; capitals alone tell only the bases. [ms] = mesyl phosphoramidate linkage; e = 2'-O-(2-methoxyethyl) (MOE); k = constrained ethyl (cEt); [5mC] = 5-methylcytosine; d = 2'-deoxy (DNA)

Substance: 1757564: mixed MOE/cEt gapmer TTGGTGAATCTTTATTAA, sugar eeeekddddddddkeeke, linkages soossssssssssooss (eT*eTeGeG*kT*dG*dA*dA*dT*d[5mC]*dT*dT*dT*kAeTeT*kA*eA) [compound 1757564]
APOE RNA (% control) Cortex: 95

Substance: 1757541: mixed MOE/cEt gapmer TTGGTGAATCTTTATTAA, sugar eeeekddddddddeeeee, linkages soossssssssssooss (eT*eTeGeG*kT*dG*dA*dA*dT*d[5mC]*dT*dT*dT*eAeTeT*eA*eA) [compound 1757541]
APOE RNA (% control) Cortex: 88

Substance: 1785591 (k[5mC]*kT*kT*dG[ms]dG[ms]dT[ms]dG*dA*dA*dT*d[5mC]*dT[ms]dT[ms]dT*dA*dT*kT*kA*dA[ms]kA; antisense) [Compound 1785591]
APOE RNA (% control) Cortex: 51

Substance: 1757586 (eT*eTeGeGkT*dG*dA*dA*dT*d[5mC]*dT*dT*dT*dA*dT*kTkAeA*eA*e[5mC]; antisense) [Compound 1757586]
APOE RNA (% control) Cortex: 88

Substance: ^mCksTksTksGdzGdzTdzGdzAdzAdzTds^mCdsTdsTdsTdsAdsTdsTksAksAdzAk (antisense k[5mC]*kT*kT*dG[ms]dG[ms]dT[ms]dG[ms]dA[ms]dA[ms]dT*d[5mC]*dT*dT*dT*dA*dT*kT*kA*dA[ms]kA) [Compound No. 1785602]
APOE RNA (% control) Cortex: 53

Substance: 1757583 (eT*eTeGeGeT*dG*dA*dA*dT*d[5mC]*dT*dT*dT*dA*dT*kTeAeA*eA*e[5mC]; antisense) [Compound 1757583]
APOE RNA (% control) Cortex: 97

Substance: 1778109: 6-10-4 MOE gapmer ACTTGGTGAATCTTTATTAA, linkages sooossszzsssssszoss (eA*e[5mC]eTeTeG*eG*dT*dG[ms]dA[ms]dA*dT*d[5mC]*dT*dT*dT*dA[ms]eTeT*eA*eA) [compound 1778109]
APOE RNA (% control) Cortex: 81

Substance: 1778123: modified oligonucleotide complementary to human APOE RNA (eA*e[5mC]eTeTeG*eG*dT*dG[ms]dA[ms]dA*dT*d[5mC]*dT*dT*dT*dA[ms]kTkT*eA*eA; antisense) [compound 1778123]
APOE RNA (% control) Cortex: 77

Substance: 1757544: mixed MOE/cEt gapmer TTGGTGAATCTTTATTAA, sugar ekeeeddddddddeeeee, linkages soossssssssssooss (eT*kTeGeG*eT*dG*dA*dA*dT*d[5mC]*dT*dT*dT*eAeTeT*eA*eA) [compound 1757544]
APOE RNA (% control) Cortex: 101
